System Under Test: recombinant CD73 (Homo sapiens (Human))
Assay: Inhibition of the CD73 enzyme in vitro (soluble recombinant CD73, AMP, Malachite Green)
Type: biochemical
Measurement Context: recombinant CD73 0.5 nM, AMP 50 μM, 30 minutes at room temperature
Procedure: The concentration of inorganic phosphate was determined using a phosphate standard curve.
IC50 by entry:
Metric Name: IC50 (µM)

>>> df
                                   compound  metric_name  reported_measurement
0  Nc1nc(Cl)nc2c1ncn2[C@@H]1O[C@H](COC(Cc2csc3ccc(Cl)cc23)(C(=O)O)C(=O)O)[C@@H](O)[C@@H]1F [compound 96]         IC50                 0.788
1  Nc1nc(Cl)nc2c1ncn2[C@@H]1O[C@H](COC(Cc2cc(-c3ccccc3)no2)(C(=O)O)C(=O)O)[C@@H](O)[C@@H]1F [compound 61]         IC50                  2.25
2  Nc1nc(Cl)nc2c1ncn2[C@@H]1O[C@H](COC(Cc2ccc(NC(=O)c3cccs3)cc2)(C(=O)O)C(=O)O)[C@@H](O)[C@@H]1F [compound 141]         IC50                  0.06

###

System Under Test: recombinant CD73 (Homo sapiens (Human), UniProt P21589)
Sequence (P21589 27-547): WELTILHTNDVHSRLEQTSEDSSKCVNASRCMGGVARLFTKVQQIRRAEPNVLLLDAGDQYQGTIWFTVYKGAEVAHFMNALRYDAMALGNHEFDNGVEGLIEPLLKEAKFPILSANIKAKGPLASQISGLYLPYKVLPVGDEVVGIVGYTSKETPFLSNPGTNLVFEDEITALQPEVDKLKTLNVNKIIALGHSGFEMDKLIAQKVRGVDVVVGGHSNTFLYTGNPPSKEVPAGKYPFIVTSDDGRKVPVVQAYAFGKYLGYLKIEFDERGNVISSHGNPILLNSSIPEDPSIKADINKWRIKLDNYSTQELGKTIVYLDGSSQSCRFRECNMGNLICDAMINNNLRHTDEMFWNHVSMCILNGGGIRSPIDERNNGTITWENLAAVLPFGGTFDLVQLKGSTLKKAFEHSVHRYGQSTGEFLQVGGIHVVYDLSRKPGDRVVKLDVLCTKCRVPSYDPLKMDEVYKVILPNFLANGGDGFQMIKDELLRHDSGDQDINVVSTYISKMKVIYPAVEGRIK
Assay: Inhibition of the CD73 enzyme in vitro (soluble recombinant CD73, AMP, Malachite Green)
Type: biochemical
Measurement Context: recombinant CD73 0.5 nM, AMP 50 μM, 30 minutes at room temperature
IC50 by entry:
Metric Name: IC50 (nM)

In [3]: df
Out[3]:
                                   molecule                         system_under_test  readout_units  reported_measurement
0  Nc1nc(Cl)nc2c1ncn2[C@@H]1O[C@H](COC(Cc2ccccc2)(C(=O)O)C(=O)O)[C@@H](N)[C@H]1O  recombinant CD73 (Homo sapiens (Human), UniProt P21589)             nM                  1870
1  Nc1nc(Cl)nc2c1ncn2[C@@H]1O[C@H](COC(Cc2ccc(Cl)cc2F)(C(=O)O)C(=O)O)[C@@H](O)[C@@H]1F  recombinant CD73 (Homo sapiens (Human), UniProt P21589)             nM                    44
2  Nc1nc(Cl)nc2c1ncn2[C@@H]1O[C@H](COC(Cc2c(F)cc(Cl)cc2F)(C(=O)O)C(=O)O)[C@@H](O)[C@@H]1F  recombinant CD73 (Homo sapiens (Human), UniProt P21589)             nM                 25300
3  Nc1nc(Cl)nc2c1ncn2[C@@H]1O[C@H](COC(Cc2ccc(OCC(=O)O)cc2)(C(=O)O)C(=O)O)[C@@H](O)[C@@H]1F  recombinant CD73 (Homo sapiens (Human), UniProt P21589)             nM                   172
4  CS(=O)(=O)c1ccc(CC(OC[C@H]2O[C@@H](n3cnc4c(N)nc(Cl)nc43)[C@@H](F)[C@@H]2O)(C(=O)O)C(=O)O)cc1 [compound 153]  recombinant CD73 (Homo sapiens (Human), UniProt P21589)             nM                    74
5  Nc1nc(Cl)nc2c1ncn2[C@@H]1O[C@H](COC(Cc2ccc(C(=O)O)cc2F)(C(=O)O)C(=O)O)[C@@H](O)[C@@H]1F  recombinant CD73 (Homo sapiens (Human), UniProt P21589)             nM                   142

Sourced from patent US11034715B2
